B1: glmS ribozyme (parent)
chain: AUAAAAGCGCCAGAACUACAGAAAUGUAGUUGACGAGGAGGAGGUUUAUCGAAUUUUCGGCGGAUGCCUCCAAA

Variants of: B1
runDescription: KM; higher = weaker cofactor use; RNA array
experimentalParameters: with glucosamine-6-phosphate
Assign Y to entries whose KM meets or exceeds 2000 µM; assign N to the rest.

Quick check: does C50U G59U have KM greater than or equal to 2000 µM?
N

Form field: KM at least 2000 µM? Entry: U46A U47C
Y
